test system: RAW-Dual; assay: NF-kB SEAP reporter activity, fold change vs agonist alone; cytotoxicity flag (confluency mask): cytotoxic (confluency <70% of control); higher = enhanced NF-kB activity; conditions: agonist: Pam2CSK4 (TLR2/6) 0.1 ug/mL
Over roughly 2,900 compounds, “NF-kB SEAP reporter activity, fold change vs agonist alone” has its median near 0.99; the highest 2% begin near 2.6. Many of the other results were omitted from the sample, so the highest values are more common in it than they were.
Criterion: NF-kB SEAP reporter activity meeting or surpassing 0.2. Met: yes (1). Not met: no (0).

Answer whether NF-kB SEAP reporter activity of CCCCCCOc1cc(C)c(O)c(C)c1C (library stock concentration (final ~1000-fold dilution): 10 mM) is greater than or equal to 0.2.
no (0)

Can you handle Cc1ccc(C(=O)N(CCCN)C(c2nc3cc(Cl)ccc3c(=O)n2Cc2ccccc2)C(C)C)cc1 (stereo not given) (library stock concentration (final ~1000-fold dilution): 10 mM) next?
no (0)

Can you handle CCN(CC)CCNC(=O)c1c(C)[nH]c(/C=C2/C(=O)Nc3ccc(-c4csc(-c5ccccc5)n4)cc32)c1C (library stock concentration (final ~1000-fold dilution): 10 mM) next?
yes (1)

Can you handle CCn1c2ccccc2c2cc(CNCc3ccccc3OC)ccc21.Cl (library stock concentration (final ~1000-fold dilution): 10 mM) next?
yes (1)

Can you handle Cl.Cl.Cn1cc(CNCC2CCN(c3ncc(C(=O)NO)cn3)CC2)c2ccccc21 (library stock concentration (final ~1000-fold dilution): 10 mM) next?
yes (1)
